These entries and their values trace back to the nanobody polyreactivity screen of Harvey et al. (2022).

test: yeast display, Sf9 membrane polyspecificity reagent, FACS + sequencing; frameworks hold sequencing errors

{"columns": ["SEQ", "polyreactivity (PSR sort gate)"],
 "data": [
  ["QVQLVESGGGLVQAGGSLRLSCAASGSIFPGNAMGWYRQAPGKERELVASINWSGGSTYYADSVKGRFTISRDNANNTVYLQMNSLKPEDTAVYYCNADPGYYDYDYWGQGTQVTVSS", "low polyreactivity"],
  ["QGQLVESGGGLVQAGGSLRLSCAASGGIFDSNAMGWYRQARGKERELVAAISDSGGSTYYADSVKGRFTITRDNAKNTVYLQMNSLKTDDTAVYDCAADSDYHFLNYRFGMDYWGQGTQVTVSS", "low polyreactivity"]
]}
